# Assay notes: Toxicity liver stage against HepG2, at 10uM
# Assay type: cell-based
# Design: test concentration 10 uM, cell line HepG2-A16-CD81EGFP
# Condition details: human, HepG2-A16-CD81EGFP cells; read-out: INHIBITION
Under this convention, yes denotes cytotoxicity at 10 µM strictly below -10% and no denotes cytotoxicity at 10 µM at or above -10%.

CCC(=O)N(CC)CCc1nccs1	no
O=C([C@H]1CCCO1)N1CC[C@H](O)[C@@H]1Cc1cccnc1	yes
CCN(C(=O)c1ccc(-c2ccccc2)nc1C)C1CC(=O)NC1=O (stereo unspecified)	no

IN: Below -10% on cytotoxicity at 10 µM? Entry O=C(NC[C@H]1OC[C@@H]2CCN(Cc3ccco3)C[C@@H]21)c1ccsc1
OUT: yes

IN: Strictly below -10% in cytotoxicity at 10 µM? CCOC(=O)c1coc(N2CCC(N3CCC(O)CC3)CC2)n1
OUT: no

IN: # TODO verify cytotoxicity at 10 µM < -10% strictly for this compound: COCc1ncc(CN2CCC3(CCC(=O)N(CC(C)O)C3)CC2)cn1 (stereo unspecified)
OUT: yes

IN: # TODO verify cytotoxicity at 10 µM < -10% strictly for this compound: O=C(CN1CCCC1=O)N1CCC(O)(Cn2ccc3ccncc32)CC1
OUT: no

IN: Dear colleague, could you confirm whether cytotoxicity at 10 µM of COC(C(=O)N1CCN(c2cccc(Cl)c2)C(=O)C1)c1ccccc1 (stereo unspecified) falls below -10%? Thanks.
OUT: no

IN: Item Cc1csc(CCNc2ccc(C#N)cc2F)n1 : cytotoxicity at 10 µM beneath -10%, strictly?
OUT: no

IN: Hi there! Is cytotoxicity at 10 µM for c1csc(-c2nc(CN3CCCC3Cn3cncn3)co2)c1 (stereo unspecified) below -10%, do you know?
OUT: yes

IN: Decide: cytotoxicity at 10 µM of CC(C)C(NC(=O)NCC1CC1)c1nnc2n1CCC2 (stereo unspecified) strictly below -10%?
OUT: no
